B1: CPEB3 Ribozyme (parent)
chain: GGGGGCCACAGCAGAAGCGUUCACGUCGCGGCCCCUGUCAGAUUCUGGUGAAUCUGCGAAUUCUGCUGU

# Variants of: B1
# ASSAY_SUMMARY: self-cleavage, relative activity (ratio to wild type); higher = more cleavage; co-transcriptional
Class T: self-cleavage at least 0.3. Class F: self-cleavage below 0.3.

For orientation, consider the following solved cases.
>>> label_value("GGGGGCCACAGCAGAAGCGUUCACGUCGCGGCCCCUGUAAGAUUCUGGUGAAUCUGCAAAUUCUGCUGU [C39A G58A]")
"T"
>>> label_value("GGGGGCCACAGCAGAAGCGUUCACGUCGCGGCCCAUGUCAGAUUCUGGUGCAUCUGCGAAUUCUGCUGU [C35A A51C]")
"F"
>>> label_value("GGGGGCCACAGCAGAAGCGGUCACGUCGCGGCCCCUGUCAGAUUCUGGUCAAUCUGCGAAUUCUGCUGU [U20G G50C]")
"F"
>>> label_value("GGGAGCCACAGCAGAAGCGUUCACGUCGCGGCCCCUGUCCGAUUCUGGUGAAUCUGCGAAUUCUGCUGU [G4A A40C]")
"F"
>>> label_value("GGGGGCCACAGCAGAAGCGUUCACGUCGCGGCCCCUGUCAGAUCCUGGUGAAUCUGCGAAUUUUGCUGU [U44C C63U]")
"T"
>>> label_value("GGGGGCCACAGCAGAAGCGUUCACGUCGCGGCCCCUGUCAGAUUCUGGUGAAUCAGCGAAUGCUGCUGU [U55A U62G]")
"T"
>>> label_value("GGGGGCCACAGCAGAAGCGUUCACGUCGCGGCCGCUGUCAGAUUCUGGUGAAUCUGCGAAUACUGCUGU [C34G U62A]")
"T"
>>> label_value("GGGGGCCACAGCAGAAGCGUUCACGUCGCGGCCCCUGUCAGAUUGUGUUGAAUCUGCGAAUUCUGCUGU [C45G G48U]")
"T"
>>> label_value("GGGGGCCACAGCAGAAGCGUUUACGUCGCGGCCCCUGUCAUAUUCUGGUGAAUCUGCGAAUUCUGCUGU [C22U G41U]")
"F"
>>> label_value("UGGGGCCACAGCAGGAGCGUUCACGUCGCGGCCCCUGUCAGAUUCUGGUGAAUCUGCGAAUUCUGCUGU [G1U A15G]")
"F"

Query :: Dear colleague, could you confirm whether GGGGGCCACAGAAGAAGCGUUCACGUCGCGGCCCCUGUCAGAUCCUGGUGAAUCUGCGAAUUCUGCUGU [C12A U44C] has self-cleavage at or above 0.3?
Result :: T

Provenance of the data: the RNAGym collection of RNA variant scans (doi:10.7554/elife.80360)
